Source of measurements: PubChem BioAssay AID276

tested on: B6C3F1 mice, Lewis lung carcinoma iv, survival T/C; experiment: NCI In Vivo Anticancer Drug Screen. Data for tumor model Lewis Lung Carcinoma (intravenous) in B6C3F1 mice; details: endpoint: median survival time; dose: 1.25 mg/kg/injection; schedule: Q01DX009 (ip); vehicle: saline with Tween-80; higher = longer survival
Inconclusive results and toxic doses are left out.
Each record here notes measured T/C.

Check out these entries, answers already filled in.
INSERT INTO results (compound_smiles, system_under_test, data_value) VALUES
  ('Nc1ccc(Cn2ccc3c4c(N)nc(N)nc4ccc32)cc1', 'B6C3F1 mice, Lewis lung carcinoma iv, survival T/C', '105 % of control'),
  ('CCN1/C(=C/C=C/C=C\C=C\c2sc3ccc4ccccc4c3[n+]2CC)Sc2ccc3ccccc3c21', 'B6C3F1 mice, Lewis lung carcinoma iv, survival T/C', '104 % of control'),
  ('O=C1C=C[C@H](O)[C@@]2(CO)O[C@@H]12', 'B6C3F1 mice, Lewis lung carcinoma iv, survival T/C', '114 % of control');

Under B6C3F1 mice, Lewis lung carcinoma iv, survival T/C: T/C value of `CCCCCCCC(=O)O[C@H]1[C@H]2[C@@H](CC1(C)C)C(=O)[C@]13O[C@H]1C(=O)[C@]1(CO1)[C@]23C` ?
100 % of control

Which measured T/C belongs to `CCOC(=O)Nc1cc2c(c(N)n1)N=C(c1ccccc1)CN2` , tested on B6C3F1 mice, Lewis lung carcinoma iv, survival T/C?
105 % of control

###

Test system: B6C3F1 mice, Lewis lung carcinoma iv, survival T/C
Test: NCI In Vivo Anticancer Drug Screen. Data for tumor model Lewis Lung Carcinoma (intravenous) in B6C3F1 mice
Details: endpoint: median survival time; dose: 25.0 mg/kg/injection; schedule: Q01DX009 (ip); vehicle: suspension in saline; higher = longer survival
Method: The antitumor activity of compounds was measured in mice bearing transplantable tumors. Survival or tumor size were measured and the results are expressed as the measurement made in the treated group (T) divided by the measurement made in the vehicle treated control group (C). The tumor model used in this assay is Lewis Lung Carcinoma (intravenous) in B6C3F1 mice
Toxic doses and inconclusive results are not listed.
endpoint: T/C

Here is how some compounds turned out for T/C.
INSERT INTO measurements (compound, endpoint, data_value) VALUES
  ('NC(=S)c1ncn(C2OC(CO)C(O)C2O)c1N (configuration not stated)', 'T/C', '99 % of control'),
  ('O=C1NC(O)c2ccccc2O1 (configuration not stated)', 'T/C', '106 % of control'),
  ('Cc1cc(NS(=O)(=O)c2ccc(N=Nc3cc(N=Nc4ccc(S(=O)(=O)Nc5cc(C)nc(C)n5)cc4)c4c(NC(=O)C(Cl)Cl)cccc4c3OC(=O)C(Cl)Cl)cc2)nc(C)n1 (tested in a mixture with another compound)', 'T/C', '105 % of control'),
  ('c1cc(-c2cc3ccc(C4=NCCN4)cc3[nH]2)ccc1C1=NCCN1', 'T/C', '111 % of control'),
  ('NNC(=S)N/N=C/c1ccccn1', 'T/C', '101 % of control');

I'd like to know its T/C. The compound in question is O=C(O)C(CSC(c1ccccc1)(c1ccccc1)c1ccccc1)N=Cc1cccs1 (configuration not stated)
100 % of control

I'd like to know its T/C. The compound in question is `CCCCCCCCCCCCCCCCP(=O)(OCCOCCCCCC)OCCOCCCCCC`
107 % of control

Requested read-out: T/C. Entry: CCCCCCCCCCCCCCCCCCOCC(COP(=O)([O-])OCC[N+](C)(C)C)OC (configuration not stated)
100 % of control

# T/C lookup, item `Cc1ccc2nc(-c3ccc4nc(-c5ccc(N=Nc6ccc(-c7nc8ccc(-c9nc%10ccc(C)c(S(=O)(=O)O)c%10s9)cc8s7)cc6)cc5)sc4c3)sc2c1S(=O)(=O)O`
98 % of control

So what does the record say about T/C for `CS(=O)(=O)Nc1ccc(C(=O)CCN2CCCCCC2)cc1` ?
95 % of control
